- Assay system: human serum albumin (HSA) (Homo sapiens)
- Sequence (P02768 25-609): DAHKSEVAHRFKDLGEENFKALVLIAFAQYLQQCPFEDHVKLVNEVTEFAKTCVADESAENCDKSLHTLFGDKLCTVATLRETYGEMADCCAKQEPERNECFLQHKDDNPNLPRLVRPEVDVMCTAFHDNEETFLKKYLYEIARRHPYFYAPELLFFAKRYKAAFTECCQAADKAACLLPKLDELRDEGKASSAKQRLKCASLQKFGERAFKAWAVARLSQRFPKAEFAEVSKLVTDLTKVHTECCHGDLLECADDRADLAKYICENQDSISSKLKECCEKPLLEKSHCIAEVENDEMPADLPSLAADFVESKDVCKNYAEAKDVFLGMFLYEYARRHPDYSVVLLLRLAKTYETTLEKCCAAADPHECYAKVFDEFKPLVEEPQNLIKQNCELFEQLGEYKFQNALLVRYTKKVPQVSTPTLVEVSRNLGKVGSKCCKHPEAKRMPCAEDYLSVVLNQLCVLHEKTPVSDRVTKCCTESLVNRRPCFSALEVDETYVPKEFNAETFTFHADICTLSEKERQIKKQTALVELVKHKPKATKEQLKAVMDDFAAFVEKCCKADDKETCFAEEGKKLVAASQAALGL
- Applied conditions: Table S5, retention factor, HSA column, pH 7.4, 25 degrees Celsius
Mark 1 only for k HSA values smaller than 1; exact matches and larger values are 0.

Compound | Assay system | Qualitative label
CN1CCN(C2=Nc3cc(Cl)ccc3Nc3ccccc32)CC1 | human serum albumin (HSA) (Homo sapiens) | 0
CN1CCC(=C2c3ccccc3C=Cc3ccccc32)CC1 | human serum albumin (HSA) (Homo sapiens) | 0
CC(C)NCC(O)COc1ccc(COCCOC(C)C)cc1 (centres unmarked) | human serum albumin (HSA) (Homo sapiens) | 0
OCCN1CCN(CCC=C2c3ccccc3Sc3ccc(C(F)(F)F)cc32)CC1 | human serum albumin (HSA) (Homo sapiens) | 0
CCN(Cc1ccncc1)C(=O)C(CO)c1ccccc1 (centres unmarked) | human serum albumin (HSA) (Homo sapiens) | 1
OC(CCN1CCCCC1)(c1ccccc1)C1CC2C=CC1C2 (centres unmarked) | human serum albumin (HSA) (Homo sapiens) | 1
CCN(CC)C(=O)Nc1ccc(OCC(O)CNC(C)(C)C)c(C(C)=O)c1 (centres unmarked) | human serum albumin (HSA) (Homo sapiens) | 0
CN1CCN2c3ccccc3Cc3ccccc3C2C1 (centres unmarked) | human serum albumin (HSA) (Homo sapiens) | 0
C[C@H]1c2cccc(O)c2C(=O)C2=C(O)[C@]3(O)C(=O)C(C(N)=O)=C(O)[C@@H](N(C)C)[C@@H]3[C@@H](O)[C@@H]21 | human serum albumin (HSA) (Homo sapiens) | 0
CC(=O)Nc1ccc(O)cc1 | human serum albumin (HSA) (Homo sapiens) | 1
Clc1cccc(Cl)c1N=C1NCCN1 | human serum albumin (HSA) (Homo sapiens) | 0
COc1ccccc1OCCNCC(O)COc1cccc2[nH]c3ccccc3c12 (centres unmarked) | human serum albumin (HSA) (Homo sapiens) | 0
OCCN1CCN(CC/C=C2/c3ccccc3Sc3ccc(Cl)cc32)CC1 | human serum albumin (HSA) (Homo sapiens) | 0
CCCC(CCC)C(=O)O | human serum albumin (HSA) (Homo sapiens) | 0
CC(CN1c2ccccc2Sc2ccccc21)N(C)C (centres unmarked) | human serum albumin (HSA) (Homo sapiens) | 0
CC[C@H]1OC(=O)[C@H](C)[C@@H](O[C@H]2C[C@@](C)(OC)[C@@H](O)[C@H](C)O2)[C@H](C)[C@@H](O[C@@H]2O[C@H](C)C[C@H](N(C)C)[C@H]2O)[C@](C)(O)C[C@@H](C)CN(C)[C@H](C)[C@@H](O)[C@]1(C)O | human serum albumin (HSA) (Homo sapiens) | 1
CN(C)CCc1c[nH]c2ccc(C[C@H]3COC(=O)N3)cc12 | human serum albumin (HSA) (Homo sapiens) | 0
CC[C@H]1OC(=O)[C@H](C)[C@@H](O[C@H]2C[C@@](C)(OC)[C@@H](O)[C@H](C)O2)[C@H](C)[C@@H](O[C@@H]2O[C@H](C)C[C@H](N(C)C)[C@H]2O)[C@](C)(OC)C[C@@H](C)C(=O)[C@H](C)[C@@H](O)[C@]1(C)O | human serum albumin (HSA) (Homo sapiens) | 1
CC(C)NCC(O)COc1ccc(CCOCC2CC2)cc1 (centres unmarked) | human serum albumin (HSA) (Homo sapiens) | 0
O=C(CCCN1CCC(O)(c2ccc(Cl)cc2)CC1)c1ccc(F)cc1 | human serum albumin (HSA) (Homo sapiens) | 0
NC(=O)N1c2ccccc2C=Cc2ccccc21 [carbamazepine] | human serum albumin (HSA) (Homo sapiens) | 0
CSc1ccc2c(c1)N(CCC1CCCCN1C)c1ccccc1S2 (centres unmarked) | human serum albumin (HSA) (Homo sapiens) | 0
CO/N=C(\C(=O)N[C@@H]1C(=O)N2C(C(=O)O)=C(COC(N)=O)CS[C@H]12)c1ccco1 | human serum albumin (HSA) (Homo sapiens) | 1
O=C1NC(=O)C(c2ccccc2)(c2ccccc2)N1 | human serum albumin (HSA) (Homo sapiens) | 0
CN1C(C(=O)Nc2ccccn2)=C(O)c2ccccc2S1(=O)=O | human serum albumin (HSA) (Homo sapiens) | 0
NS(=O)(=O)c1cc(C2(O)NC(=O)c3ccccc32)ccc1Cl (centres unmarked) | human serum albumin (HSA) (Homo sapiens) | 1
C=CCN1C[C@H](C(=O)N(CCCN(C)C)C(=O)NCC)C[C@@H]2c3cccc4[nH]cc(c34)C[C@H]21 | human serum albumin (HSA) (Homo sapiens) | 0
O=C(N[C@H](CO)[C@H](O)c1ccc([N+](=O)[O-])cc1)C(Cl)Cl | human serum albumin (HSA) (Homo sapiens) | 1
COc1ccc(CCN2CCC(Nc3nc4ccccc4n3Cc3ccc(F)cc3)CC2)cc1 | human serum albumin (HSA) (Homo sapiens) | 0
CCOCCn1c(C2CCN(CCc3ccc(C(C)(C)C(=O)O)cc3)CC2)nc2ccccc21 | human serum albumin (HSA) (Homo sapiens) | 1
CCOc1ccc(/C=C2\NCCc3cc(OCC)c(OCC)cc32)cc1OCC | human serum albumin (HSA) (Homo sapiens) | 0
CCCc1nn(C)c2c(=O)[nH]c(-c3cc(S(=O)(=O)N4CCN(C)CC4)ccc3OCC)nc12 | human serum albumin (HSA) (Homo sapiens) | 0
